molecular target: human PDE9A2 (Homo sapiens, UniProt O76083); construct: made in house; host or cells: Sf9 insect cells (infected); crude lysate used as enzyme source; test: PDE9A2 enzymatic activity assay (scintillation proximity assay, SPA); format: biochemical; conditions: IC50 within range [nanomolar (nM)], reported only as range 1-100 or 101-1200 nanomolar; specific value lies within range
Sequence (O76083 1-533 isoform O76083-2): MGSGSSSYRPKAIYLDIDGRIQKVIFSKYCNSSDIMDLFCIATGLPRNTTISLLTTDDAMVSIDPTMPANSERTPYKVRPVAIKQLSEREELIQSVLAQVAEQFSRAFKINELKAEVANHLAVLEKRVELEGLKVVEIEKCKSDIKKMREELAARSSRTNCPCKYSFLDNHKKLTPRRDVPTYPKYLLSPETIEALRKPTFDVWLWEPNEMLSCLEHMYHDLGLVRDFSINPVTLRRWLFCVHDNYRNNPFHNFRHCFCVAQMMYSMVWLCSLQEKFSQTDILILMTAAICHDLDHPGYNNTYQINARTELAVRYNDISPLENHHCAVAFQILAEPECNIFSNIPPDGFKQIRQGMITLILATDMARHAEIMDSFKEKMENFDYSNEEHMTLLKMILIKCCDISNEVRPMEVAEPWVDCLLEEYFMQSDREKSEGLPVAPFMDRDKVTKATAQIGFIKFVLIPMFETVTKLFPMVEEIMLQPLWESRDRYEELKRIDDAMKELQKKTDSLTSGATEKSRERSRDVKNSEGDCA
property: IC50

input: I'd like to know its IC50. The compound in question is O=c1[nH]c(Cc2ccccc2)nc2c1cnn2C1CCOCC1 [Example 40]
output: 1 to 100 nM

###

The following compounds are listed with their measured IC50 values.
molecular target: human PDE9A2 (Homo sapiens, UniProt O76083); construct: made in house; host or cells: Sf9 insect cells (infected); crude lysate used as enzyme source; assay: PDE9A2 enzymatic activity assay (scintillation proximity assay, SPA); format: biochemical; conditions: reported only as range 1-100 or 101-1200 nanomolar; specific value lies within range; read-out: IC50 within range [nanomolar (nM)]

input: I'd like to know its IC50. The compound in question is "COc1ccc(Cc2nc3c(cnn3C3CCOCC3)c(=O)[nH]2)cc1F"
output: 1 to 100 nM

input: Param item: "CN1CCC(n2ncc3c(=O)[nH]c(Cc4ccccc4)nc32)CC1"
output: 101 to 1200 nM

input: Param item: "CCOc1ccccc1Cc1nc2c(cnn2C2CCOCC2)c(=O)[nH]1"
output: 1 to 100 nM
